Each entry below carries its recorded EC50.
# test system: T1, cynomolgus TIGIT over-expressed on CHO-K1 cells (cynomolgus, UniProt A0A7N9I9V4 89-312)
# T1 construct: whole, on cells; also called CHO-K1/cynomolgus TIGIT cells
# T1 sequence (A0A7N9I9V4 entry or part of it): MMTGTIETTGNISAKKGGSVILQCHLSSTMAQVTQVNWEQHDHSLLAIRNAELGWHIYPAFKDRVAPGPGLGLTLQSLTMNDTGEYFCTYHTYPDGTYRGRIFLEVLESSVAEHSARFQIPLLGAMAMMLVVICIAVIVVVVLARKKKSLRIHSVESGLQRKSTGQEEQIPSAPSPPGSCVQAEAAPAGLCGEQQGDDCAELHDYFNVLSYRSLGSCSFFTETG
# method: FACS, CHO-K1 cells over-expressing cynomolgus TIGIT

[
  {
    "binder": "128E3G7F5 (antibody, V domains shown, Mouse monoclonal antibody; also called mouse anti-human TIGIT monoclonal antibody 128E3G7F5) VH: EVLLQQSGPELVKTGASVKISCKASGYSFTAYYMHWVKQSHGKSLEWIGYISCYNGATTYNQKFKGKATFTVDTSSTTAYMQFNSLTSEDSAVYYCARRVYYGYDEALVYWGQGTSVTVSS VL: DIVMTQSPSSLSVSAGEKVTMTCKSSQSLLNSGNQKNYLAWYQQKPGQPPKLLIYGASTRGSGVPDRFTGSGSGTDFTLTISSVQAEDLAVYYCQNDHSYPYTFGGGTKLEIK",
    "EC50 (nM)": 8.38
  },
  {
    "binder": "83G6H11C12 (antibody, V domains shown, Mouse monoclonal antibody; also called mouse anti-human TIGIT monoclonal antibody 83G6H11C12) VH: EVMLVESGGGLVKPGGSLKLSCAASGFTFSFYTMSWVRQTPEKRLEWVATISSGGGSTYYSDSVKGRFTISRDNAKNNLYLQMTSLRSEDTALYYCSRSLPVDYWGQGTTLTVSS VL: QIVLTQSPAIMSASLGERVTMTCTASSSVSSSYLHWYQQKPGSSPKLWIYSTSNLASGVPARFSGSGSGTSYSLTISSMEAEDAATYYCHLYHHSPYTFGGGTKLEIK",
    "EC50 (nM)": 1
  },
  {
    "binder": "139E2C2D2 (antibody, V domains shown, Mouse monoclonal antibody; also called mouse anti-human TIGIT monoclonal antibody 139E2C2D2) VH: EVQLVESGGDLVKPGGSLKLSCAASGFTFSSYGMSWVRQTPDKRLEWVAIISSGGNYTYYPDSVKGRFTISRDNAKNTLYLQMSSLKSEDTAMYYCARQIHYFFAMDYWGQGTSVTVSS VL: DIQMTQSPASLSVSVGETVTITCRASENIYSNLAWYQQKQGKSPQLLVYAATNLADGAPSRFSGSRSGTQYSLKINSLQSEDFGSYYCQHFWGTAYTFGGGTKLEIK",
    "EC50 (nM)": 18.5
  }
]
